System: T1, human TNFR2 (Novoprotein, Cat #C830) (human, UniProt P20333 23-257, limits assumed)
T1 construct: construct not described; also called human TNFR2 protein
T1 sequence (looked up): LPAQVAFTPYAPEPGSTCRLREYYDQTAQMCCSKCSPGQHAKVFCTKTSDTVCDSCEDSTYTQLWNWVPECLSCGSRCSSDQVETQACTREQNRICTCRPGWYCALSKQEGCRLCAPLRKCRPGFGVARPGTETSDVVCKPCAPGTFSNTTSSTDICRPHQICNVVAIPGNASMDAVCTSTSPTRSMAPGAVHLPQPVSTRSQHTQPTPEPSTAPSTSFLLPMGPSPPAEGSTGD
Assay protocol: competition ELISA, human TNFR2 coated, competitor human TNFα-Biotin
Measurement name: IC50 (µg/mL)
Numbers only here, please. The scale is µg/mL.

Prompt: Consider the binder shown here: 219-Hu2 (antibody, V domains shown, also called VH4 + VL5) VH: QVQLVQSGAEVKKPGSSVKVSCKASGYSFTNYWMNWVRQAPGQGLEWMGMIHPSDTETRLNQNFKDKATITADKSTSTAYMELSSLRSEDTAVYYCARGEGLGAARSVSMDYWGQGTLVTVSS VL: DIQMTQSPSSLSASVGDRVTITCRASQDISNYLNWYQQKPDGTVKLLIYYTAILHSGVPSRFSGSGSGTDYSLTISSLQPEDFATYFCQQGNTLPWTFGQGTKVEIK What is its recorded IC50?
Completion: 0.472
